Data provenance: patent US20180291082A1

peptide exchange yield: recorded values
- assay_system: T1, HLA-A*02:01 (human)
- T1 construct: Peptide-receptive MHC monomer made by UV cleavage of a UV-sensitive peptide
- assay_protocol: UV-ligand exchange, anti-b2m ELISA; exchange yield grade (+ >10%, ++ >20%, +++ >50, ++++ >75%)

Known results for binders:
> print(dat)
       binder      value
1   VMLNSNVLL      > 75%
2   VLITGLPLI      > 75%
3   KLLDEVTYL  50 to 75%
4   ALFPERITV      > 75%
5   GLMTIVTSL      > 75%
6   GLTGVIMTI      > 75%
7  KIDDIWNLEV  50 to 75%

# input binder: `LLMTSLTES` ; wanted: its peptide exchange yield 50 to 75%
